Organism: Rattus norvegicus
Assay: Open TG-GATES - Regimen: Daily Repeat
Assay type: toxicity, organism-based, Sprague-Dawley
Set-up: regimen Daily Repeat, gender Male, age 6 weeks
Conditions: in vivo, po, 100 mg/kg, 72 h, tissue Blood, route gavage, dose level Low, time 3 day
MEASURED ATTRIBUTE: Neu (%)
Write the answer as a number in %, unit excluded.

INSERT INTO assay_data (compound, unit, quantitative_readout) VALUES
  ('CCOc1ccc(NC(=O)CC(C)O)cc1 (stereo not given) [BUCETIN]', '%', 18.8),
  ('CCOC(=O)CCC(=O)O[C@H]1[C@H](O[C@@H]2[C@@H](C)[C@H](O[C@H]3C[C@@](C)(OC)[C@@H](O)[C@H](C)O3)[C@@H](C)C(=O)O[C@H](CC)[C@@](C)(O)[C@H](O)[C@@H](C)C(=O)[C@H](C)C[C@@]2(C)O)O[C@H](C)C[C@@H]1N(C)C [ERYTHROMYCIN ETHYLSUCCINATE]', '%', 11.6),
  ('COC1=CC(=O)C[C@@H](C)[C@]12Oc1c(Cl)c(OC)cc(OC)c1C2=O [GRISEOFULVIN]', '%', 16.4),
  ('COc1ccc2[nH]c([S+]([O-])Cc3ncc(C)c(OC)c3C)nc2c1 (stereo not given) [OMEPRAZOLE]', '%', 18.6);

Turning now to a further record.
INPUT: // Neu lookup, key: NC(N)=Nc1nc(CSCCC(N)=NS(N)(=O)=O)cs1 [FAMOTIDINE]
OUTPUT: 15.6

====

Species on record: Rattus norvegicus
Test: Open TG-GATES - Regimen: Single
Format: toxicity, organism-based, Sprague-Dawley
Set-up: regimen Single, gender Male, age 6 weeks
Conditions: in vivo, po, 100 mg/kg, 6 h, tissue Blood, route gavage, dose level Low
Listed compounds paired with reported Eos
A number alone suffices; assume %.

INSERT INTO assay_data (compound, unit, quantitative_readout) VALUES
  ('COC1=CC(=O)C[C@@H](C)[C@]12Oc1c(Cl)c(OC)cc(OC)c1C2=O [GRISEOFULVIN]', '%', 1),
  ('NC(N)=Nc1nc(CSCCC(N)=NS(N)(=O)=O)cs1 [FAMOTIDINE]', '%', 0.8),
  ('COc1ccc2[nH]c([S+]([O-])Cc3ncc(C)c(OC)c3C)nc2c1 (centres undefined) [OMEPRAZOLE]', '%', 1);

Kindly consider the entry below.
INPUT: What measured Eos goes with CCOC(=O)CCC(=O)O[C@H]1[C@H](O[C@@H]2[C@@H](C)[C@H](O[C@H]3C[C@@](C)(OC)[C@@H](O)[C@H](C)O3)[C@@H](C)C(=O)O[C@H](CC)[C@@](C)(O)[C@H](O)[C@@H](C)C(=O)[C@H](C)C[C@@]2(C)O)O[C@H](C)C[C@@H]1N(C)C [ERYTHROMYCIN ETHYLSUCCINATE] ?
OUTPUT: 0.8

====

Organism: Rattus norvegicus
Assay: Open TG-GATES - Regimen: Single
Type: toxicity, organism-based, Sprague-Dawley
Set-up: regimen Single, gender Male, age 6 weeks
Settings: in vivo, po, 0 mg/kg, 9 h, tissue Plasma, route gavage, dose level Control
# ALT listing for each entry below
State the answer as a number, implicitly in IU/L.

INSERT INTO assay_data (compound, quantitative_readout) VALUES
  ('CC/C(=C(\c1ccccc1)c1ccc(OCCN(C)C)cc1)c1ccccc1', 42.4),
  ('COc1ccc2[nH]c([S+]([O-])Cc3ncc(C)c(OC)c3C)nc2c1 (stereo not given)', 28),
  ('CN1C(=O)CN=C(c2ccccc2)c2cc(Cl)ccc21', 29),
  ('CCCNC(=O)NS(=O)(=O)c1ccc(Cl)cc1 [CHLORPROPAMIDE]', 42);

From here, focus on the item given below.
INPUT: Need ALT of CN(C)CCCN1c2ccccc2CCc2ccc(Cl)cc21 , thanks.
OUTPUT: 39.8
